Molecular target: HLA-A*24:03
Test: IEDB peptide-MHC binding, purified MHC/direct/fluorescence; filed as Kd, often an IC50 or EC50 that approximates it; bounds were set here for any values at or beyond the usual limits of such assays
Conditions: source organism: Coxiella burnetii Q321
pKd: −log10 of the molar value.
readout: pKd

Recorded pKd (sequence DGAEGINPY ): ≤ 4.70

---

Biological target: HLA-A*68:01
Assay: IEDB peptide-MHC binding, purified MHC/competitive/radioactivity; filed as Kd, often an IC50 or EC50 that approximates it; bounds were set here for any values at or beyond the usual limits of such assays
Conditions: source organism: Mammarenavirus brazilense
readout: pKd
Keep in mind that pKd stands for -log10 of concentration in molar terms.

Recorded pKd (sequence LNTPYCNYTK ): 6.16

---

Molecular target: HLA-B*08:02
Experiment: IEDB peptide-MHC binding, purified MHC/direct/fluorescence; filed as Kd, often an IC50 or EC50 that approximates it; bounds were set here for any values at or beyond the usual limits of such assays
Conditions: source organism: Bacillus cereus 03BB108
pKd: −log10 of the molar value.
readout: pKd

Recorded pKd (sequence KVQEWYLSY ): ≤ 4.70

---

Measured Kd, listed per entry for reference.
Target: HLA-B*40:02
Assay: IEDB peptide-MHC binding, purified MHC/competitive/radioactivity; filed as Kd, often an IC50 or EC50 that approximates it; bounds were set here for any values at or beyond the usual limits of such assays
Conditions: source organism: SARS coronavirus Tor2
Express your answer in nM, writing the number without its unit.

// worked examples, Kd included
PEFYEAMYT
5050
AEWVLAYML
4.02

Recorded Kd (sequence AEYKLQQGTF ): 20

Recorded Kd (sequence SEQSLRLVDA ): 470

---

Target: HLA-A*02:19
Assay: IEDB peptide-MHC binding, purified MHC/direct/fluorescence; filed as Kd, often an IC50 or EC50 that approximates it; bounds were set here for any values at or beyond the usual limits of such assays
Conditions: source organism: Bacillus cereus 03BB108
readout: Kd

Recorded Kd (sequence KVQEWYLSY ): ≥ 20 µM

---

Molecular target: HLA-A*01:01
Assay: IEDB peptide-MHC binding, purified MHC/direct/fluorescence; filed as Kd, often an IC50 or EC50 that approximates it; bounds were set here for any values at or beyond the usual limits of such assays
Settings: source organism: Influenza A virus (A/equine/New York/1/1999(H3N8))
readout: Kd

Recorded Kd (sequence VAGGTSSVY ): ≥ 20 µM

---

Molecular target: HLA-B*57:01
Assay: IEDB peptide-MHC binding, purified MHC/competitive/radioactivity; filed as Kd, often an IC50 or EC50 that approximates it; bounds were set here for any values at or beyond the usual limits of such assays
Conditions: source organism: Dengue virus 3 Martinique/1243/1999
readout: Kd

KTSIGLICVI
213 nM
RVWIEDNPW
49.6 nM
AAVEDEDFW
1110 nM

Shift focus to the following entry.
Recorded Kd (sequence ASSGMLWMAE ): ≥ 29300 nM

---

Biological target: HLA-A*33:01
Assay: IEDB peptide-MHC binding, purified MHC/competitive/radioactivity; filed as Kd, often an IC50 or EC50 that approximates it; bounds were set here for any values at or beyond the usual limits of such assays
Details: source organism: Mammarenavirus brazilense
readout: pKd
Keep in mind that pKd stands for -log10 of concentration in molar terms.

Fill in: HLA-A*33:01 pKd for LNTPYCNYTK = 7.49

---

Biological target: HLA-B*07:02
Assay: IEDB peptide-MHC binding, purified MHC/competitive/radioactivity; filed as Kd, often an IC50 or EC50 that approximates it; bounds were set here for any values at or beyond the usual limits of such assays
Details: source organism: Hepacivirus hominis
readout: Kd

Recorded Kd (sequence RPALVFDITK ): 222 nM

---

Target: HLA-A*26:01
Assay: IEDB peptide-MHC binding, purified MHC/direct/fluorescence; filed as Kd, often an IC50 or EC50 that approximates it; bounds were set here for any values at or beyond the usual limits of such assays
Settings: source organism: Vibrio parahaemolyticus
readout: Kd

Recorded Kd (sequence QYDDLHKKF ): ≥ 20 µM

---

Target: HLA-B*15:09
Test: IEDB peptide-MHC binding, purified MHC/direct/fluorescence; filed as Kd, often an IC50 or EC50 that approximates it; bounds were set here for any values at or beyond the usual limits of such assays
Conditions: source organism: Rickettsia typhi str. Wilmington
readout: Kd

Fill in: HLA-B*15:09 Kd for RRNRKALWL = ≥ 20 µM

---

Biological target: HLA-A*26:01
Experiment: IEDB peptide-MHC binding, purified MHC/direct/fluorescence; filed as Kd, often an IC50 or EC50 that approximates it; bounds were set here for any values at or beyond the usual limits of such assays
Conditions: source organism: Rickettsia typhi str. Wilmington
readout: Kd

Recorded Kd (sequence RRNRKALWL ): ≥ 20 µM

---

Molecular target: HLA-B*44:02
Experiment: IEDB peptide-MHC binding, purified MHC/competitive/radioactivity; filed as Kd, often an IC50 or EC50 that approximates it; bounds were set here for any values at or beyond the usual limits of such assays
Details: source organism: Hepacivirus hominis
readout: Kd

Recorded Kd (sequence RPALVFDITK ): ≥ 70.2 µM

---

Molecular target: HLA-A*01:01
Assay: IEDB peptide-MHC binding, purified MHC/direct/fluorescence; filed as Kd, often an IC50 or EC50 that approximates it; bounds were set here for any values at or beyond the usual limits of such assays
Conditions: source organism: Rickettsia prowazekii
pKd: −log10 of the molar value.
readout: pKd

Fill in: HLA-A*01:01 pKd for RRNRKALWL = ≤ 4.70

---

Target: HLA-A*02:06
Assay: IEDB peptide-MHC binding, purified MHC/competitive/fluorescence; filed as Kd, often an IC50 or EC50 that approximates it; bounds were set here for any values at or beyond the usual limits of such assays
Conditions: source organism: Salmonella enterica subsp. enterica serovar Typhi
pKd: −log10 of the molar value.
readout: pKd

Recorded pKd (sequence SVIDHIHYM ): ≥ 9.00

---

Molecular target: HLA-A*03:01
Test: IEDB peptide-MHC binding, purified MHC/direct/fluorescence; filed as Kd, often an IC50 or EC50 that approximates it; bounds were set here for any values at or beyond the usual limits of such assays
Settings: source organism: Yersinia pestis
readout: Kd

Recorded Kd (sequence SVQWFRLPR ): 582 nM

---

Biological target: HLA-A*02:06
Test: IEDB peptide-MHC binding, purified MHC/competitive/radioactivity; filed as Kd, often an IC50 or EC50 that approximates it; bounds were set here for any values at or beyond the usual limits of such assays
Conditions: source organism: Dengue virus 3 Singapore/8120/1995
readout: Kd (nM)
Express your answer in nM, writing the number without its unit.

Recorded Kd (sequence FVGKTVWFV ): 8.76

---

Molecular target: HLA-B*45:01
Experiment: IEDB peptide-MHC binding, purified MHC/competitive/radioactivity; filed as Kd, often an IC50 or EC50 that approximates it; bounds were set here for any values at or beyond the usual limits of such assays
Settings: source organism: Mammarenavirus juninense
Measured Kd, listed per entry for reference.
Express your answer in µM, writing the number without its unit.

// worked examples, Kd included
EELSMMYESL
1.9
KDTPGGYCL
18.3

Shift focus to the following entry.
Fill in: HLA-B*45:01 Kd for LESLWAPFGV = 16.1

---

Molecular target: HLA-A*02:02
Test: IEDB peptide-MHC binding, purified MHC/competitive/radioactivity; filed as Kd, often an IC50 or EC50 that approximates it; bounds were set here for any values at or beyond the usual limits of such assays
Conditions: source organism: SARS coronavirus Tor2
// boundary case: Kd equal to 10 nM maps to 0.0; strictly smaller maps to 1.0

FVDGVPFVV
1.0
LLFLVLIMLI
0.0
TLNEDLLEI
1.0
LLALQQLEV
1.0

Decide: Kd of TMADLVYAL strictly below 10 nM?
1.0

---

Molecular target: HLA-C*07:02
Experiment: IEDB peptide-MHC binding, purified MHC/direct/fluorescence; filed as Kd, often an IC50 or EC50 that approximates it; bounds were set here for any values at or beyond the usual limits of such assays
Conditions: source organism: SARS-CoV1
pKd: −log10 of the molar value.
readout: pKd

Recorded pKd (sequence NYMPYVFTL ): ≥ 9.00

---

Target: HLA-B*15:17
Assay: IEDB peptide-MHC binding, purified MHC/competitive/fluorescence; filed as Kd, often an IC50 or EC50 that approximates it; bounds were set here for any values at or beyond the usual limits of such assays
Conditions: source organism: Four Corners hantavirus
readout: Kd

Recorded Kd (sequence KARNIISPV ): ≥ 20 µM

---

Target: HLA-B*15:17
Test: IEDB peptide-MHC binding, purified MHC/direct/fluorescence; filed as Kd, often an IC50 or EC50 that approximates it; bounds were set here for any values at or beyond the usual limits of such assays
Conditions: source organism: Coxiella burnetii Q321
readout: Kd

Recorded Kd (sequence DGAEGINPY ): ≥ 20 µM
